EXPERIMENTAL TARGET: hNaV1.1 (SCN1A) (Homo sapiens, UniProt P35498)
PROTOCOL TEXT: Use-dependent inhibition of the CNS NaV1.1 sodium channel
Type: cell-based
CONDITION LABEL: % inhibition, use-dependent block at 1 uM; 25 Hz; read-out: Nav1.1 UDB 25 Hz 1 uM
Description: HEK-293 cells stably expressing wild-type (WT) hNaV1.1 (SCN1A, NCBI# AB09354) were obtained from Millipore (Cat. # CYL3009) were used to record INa. […] Cells are allowed to stabilize for 10 min after establishment of the whole-cell configuration before current is measured. […] Use-dependent block of NaV1.2 peak current is measured during pulse number 20 of a voltage pulse train (0 mV, 20 ms, 20 pulses, 25 Hz) from a holding potential of −120 mV. […]
Please go through the items and note down their inhibition at 1 µM.

# inhibition at 1 µM lookup, item Cc1cnc(CN2Cc3cc(-c4ccc(C(F)(F)F)cc4C)ccc3OC2=O)nc1 [Example 43]
< 5%

# inhibition at 1 µM lookup, item Cc1csc(CN2Cc3cc(-c4ccc(OC(F)(F)F)cc4F)ccc3OC2=O)n1 [Example 55]
< 5%

# inhibition at 1 µM lookup, item Cc1csc(CN2Cc3cc(-c4ccc(OC(F)(F)F)c(C)c4)ccc3OC2=O)n1 [Example 54]
< 5%
